measurementDescription: clinical
Design: species or system human patients
protocolConditions: human, in vivo, iv, 0-40 ng/ml CMAX (so in the source)
measuredParameter: Cmax

Give its Cmax value. Item: CC(=O)O[C@H]1C(=O)[C@@]2(C)[C@H]([C@H](OC(=O)c3ccccc3)[C@]3(O)C[C@H](OC(=O)[C@H](O)[C@@H](NC(=O)c4ccccc4)c4ccccc4)C(C)=C1C3(C)C)[C@]1(OC(C)=O)CO[C@@H]1C[C@@H]2O [taxol]
< 40 ng/mL

---

measurementDescription: clinical
Design: species or system human patients
protocolConditions: human, in vivo, iv, peripheral blood CMAX
measuredParameter: Cmax
Please state the value followed by its unit.

Give its Cmax value. Item: `CC(=O)O[C@H]1C(=O)[C@@]2(C)[C@H]([C@H](OC(=O)c3ccccc3)[C@]3(O)C[C@H](OC(=O)[C@H](O)[C@@H](NC(=O)c4ccccc4)c4ccccc4)C(C)=C1C3(C)C)[C@]1(OC(C)=O)CO[C@@H]1C[C@@H]2O`
1240 ng/mL
